# targetUnderTest: HDAC1 (Homo sapiens (Human))
# Sequence (Q13547 whole entry): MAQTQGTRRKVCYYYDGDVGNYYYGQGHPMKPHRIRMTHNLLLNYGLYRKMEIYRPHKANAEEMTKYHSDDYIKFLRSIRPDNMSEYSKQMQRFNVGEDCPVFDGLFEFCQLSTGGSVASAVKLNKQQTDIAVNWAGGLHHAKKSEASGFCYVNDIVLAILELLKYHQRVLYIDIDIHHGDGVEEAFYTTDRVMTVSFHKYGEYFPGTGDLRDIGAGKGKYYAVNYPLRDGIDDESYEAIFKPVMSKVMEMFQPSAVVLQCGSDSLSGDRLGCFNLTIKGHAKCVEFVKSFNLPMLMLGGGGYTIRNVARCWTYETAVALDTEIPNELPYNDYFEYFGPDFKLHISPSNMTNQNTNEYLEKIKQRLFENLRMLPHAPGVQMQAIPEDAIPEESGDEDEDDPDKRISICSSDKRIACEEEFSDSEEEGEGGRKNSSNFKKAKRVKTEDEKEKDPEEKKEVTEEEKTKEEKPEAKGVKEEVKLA
# experimentalProtocol: Reporter displacement assay (HDAC1)
# testContext: reporter probe displacement, Cheng Prusoff
pKd: −log10 of the molar value.
measureName: pKd

# compound, targetUnderTest, measureName, readoutValue
measured = [
    ("Nc1ccc(-c2ccco2)cc1NC(=O)N1Cc2ccncc2C1 [Compound 168]", "HDAC1 (Homo sapiens (Human))", "pKd", "> 7.00"),
    ("Nc1ccc(-c2ccc(F)cc2)cc1NC(=O)c1nc2c(s1)CNCC2 [Compound 147]", "HDAC1 (Homo sapiens (Human))", "pKd", "> 7.00"),
    ("Nc1ccc(-c2ccc(F)cc2)cc1NC(=O)N1CCC2(CCN(CCF)C2)CC1 [Compound 143]", "HDAC1 (Homo sapiens (Human))", "pKd", "> 7.00"),
    ("Nc1ccc(-c2ccc(F)cc2)cc1NC(=O)N1CC2CCC(C1)N2C=O [Compound 117]", "HDAC1 (Homo sapiens (Human))", "pKd", "< 5.30"),
    ("Nc1ccc(-c2ccncc2)cc1NC(=O)N1Cc2ccncc2C1 [Compound 102]", "HDAC1 (Homo sapiens (Human))", "pKd", "> 7.00"),
    ("Nc1ccc(-c2ccc(F)c(F)c2)cc1NC(=O)N1Cc2nccnc2C1 [Compound 137]", "HDAC1 (Homo sapiens (Human))", "pKd", "6.30 to 7.00"),
    ("CC(C)COC(=O)N1CC2CN(C(=O)Nc3cc(-c4ccc(F)cc4)ccc3N)CC2C1 (stereo not drawn) [Compound 157]", "HDAC1 (Homo sapiens (Human))", "pKd", "> 7.00"),
    ("Nc1ccc(-c2ccc(F)cc2)cc1NC(=O)N1CC2CCNCC2C1 (stereo not drawn) [Compound 170]", "HDAC1 (Homo sapiens (Human))", "pKd", "5.30 to 6.30"),
    ("Nc1ccc(-c2ccc(F)cc2)cc1NC(=O)N1CC2CN(C(=O)C3CC3)CC2C1 (stereo not drawn) [Compound 125]", "HDAC1 (Homo sapiens (Human))", "pKd", "> 7.00"),
    ("Nc1ccc(-c2ccc(F)cc2)cc1NC(=O)c1cn2c(n1)CNCC2 [Compound 122]", "HDAC1 (Homo sapiens (Human))", "pKd", "> 7.00"),
    ("CC(=O)N1C2CCC1CN(C(=O)Nc1cc(-c3ccncc3)ccc1N)C2 [Compound 109]", "HDAC1 (Homo sapiens (Human))", "pKd", "< 5.30"),
    ("Nc1ccc(-c2cc(F)c(F)c(F)c2)cc1NC(=O)N1Cc2ccncc2C1 [Compound 142]", "HDAC1 (Homo sapiens (Human))", "pKd", "5.30 to 6.30"),
]
